- Measured On: serotonin 2 receptor (Rattus norvegicus)
Where a name gives a salt, the structure may show the parent alone.
Threshold 9 nM. Ki below it: t. Ki at it or above: f.

>>> df
                                   compound  assigned_category
0  CCN1CCN(c2nc(-c3ccc4c(c3)CC(CO)C4)cc3ccccc23)CC1 (stereo not shown) [Example 393, Dihydrochloride]                  t
1  CCN1CCN(c2nc(-c3ccc(CCNS(=O)(=O)CC)cc3)cc3ccccc23)CC1 [Example 79, Hydrochloride]                  f
2  CCN1CCN(c2nc(-c3ccc(C(F)(F)F)cc3)cc3ccccc23)CC1 [Example 4, Dihydrochloride]                  f
3  CCN1CCN(c2nc(-c3ccc(OCC(C)(C)O)cc3)cc3ccccc23)CC1 [Example 309, dihydrochloride]                  t
4  CCN1CCN(c2nc(/C=C/c3ccccc3)cc3ccccc23)CC1 [Example 189, Dihydrochloride]                  t
5  CCN1CCN(c2nc(C3CCc4ccc(OC)cc43)cc3ccccc23)CC1 (stereo not shown) [Example 114, Oxalate]                  f

---

- Measured On: serotonin 2 receptor (Rattus norvegicus)
Where a name gives a salt, the structure may show the parent alone.
Reported Property: Ki (nM)

>>> print(df.to_string())
                                   compound  endpoint_result
0  CCN1CCN(c2nc(-c3ccc(N4CCSCC4)nc3)cc3ccsc23)CC1 [Example 264, Hydrochloride]             3.34
1  CCN1CCN(c2nc(-c3ccc(OCCCc4ccncc4)cc3)cc3ccccc23)CC1 [Example 57, Hydrochloride]              4.6
2  CCN1CCN(c2nc(-c3ccc4c(c3)CC(CO)CO4)cc3ccccc23)CC1 (stereo not shown) [Example 122, Hydrochloride]             19.9
3  CCN1CCN(c2nc(-c3ccc(OC[C@@H](C)O)cc3)cc3ccsc23)CC1 [Example 435, dihydrochloride]             1.14
4  CN1CCN(c2nc(-c3ccc(OCC(C)(C)O)cc3)cc3sccc23)CC1 [Example 288, hydrochloride]             0.14
5  CCN1CCN(c2nc(/C=C/c3ccc(N4CCOCC4)cc3)cc3ccccc23)CC1 [Example 205, Oxalate]             0.98
6  CCN1CCN(c2nc(C(C)c3ccc(OC)cc3)cc3ccccc23)CC1 (stereo not shown) [Example 102, Oxalate]              132

---

- Measured On: serotonin 2 receptor (Rattus norvegicus, UniProt P14842)
- Sequence (P14842 whole entry): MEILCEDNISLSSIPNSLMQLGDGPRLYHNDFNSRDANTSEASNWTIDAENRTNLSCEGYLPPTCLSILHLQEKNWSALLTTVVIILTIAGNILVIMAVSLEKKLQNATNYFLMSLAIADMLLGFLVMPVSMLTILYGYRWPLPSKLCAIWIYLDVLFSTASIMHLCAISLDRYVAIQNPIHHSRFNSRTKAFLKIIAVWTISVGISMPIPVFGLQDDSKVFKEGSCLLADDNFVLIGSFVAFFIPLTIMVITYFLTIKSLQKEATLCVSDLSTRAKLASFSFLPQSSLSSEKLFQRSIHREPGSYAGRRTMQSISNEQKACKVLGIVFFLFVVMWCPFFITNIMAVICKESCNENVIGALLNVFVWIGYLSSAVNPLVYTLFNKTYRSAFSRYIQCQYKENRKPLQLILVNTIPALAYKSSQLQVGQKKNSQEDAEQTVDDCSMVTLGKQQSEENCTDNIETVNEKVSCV
pKi: −log10 of the molar value. Structures can show the parent of a compound that is named as a salt.
Output Y for pKi not less than 8; output N otherwise.

In [3]: df
Out[3]:
                                   compound  assigned_category
0  CCN1CCN(c2nc(-c3ccc(S(=O)(=O)N(C)C)cc3)cc3ccccc23)CC1 [Example 362, dihydrochloride]                  N
1  CCN1CCN(c2nc(-c3ccc(OCCCO)cc3)cc3sccc23)CC1 [Example 462, dihydrochloride]                  Y
2  CCN1CCN(c2nc(-c3ccc(CCCO)c(C#N)c3)cc3ccsc23)CC1 [Example 262, Oxalate]                  Y
3  CCN1CCN(c2nc(-c3ccc(OCCO)c(C(C)C)c3)cc3ccccc23)CC1 [Example 41, hydrochloride]                  N
4  CCN1CCN(c2nc(-c3ccc(OCCCC#N)cc3)cc3ccccc23)CC1 [Example 53, Hydrochloride]                  Y

---

Where a name gives a salt, the structure may show the parent alone.
Reported Property: melting point

>>> print(df.to_string())
                                   compound  reported_property  endpoint_result
0  CCN1CCN(c2nc(-c3ccc(C(CC(C)O)OC)cc3)cc3ccccc23)CC1 (stereo not drawn) (as salt: hydrochloride)      melting point    171 to 174 °C
1  CCN1CCN(c2nc(/C=C/c3ccc(OC)cc3)cc3ccccc23)CC1 (as salt: hydrochloride) [Example 190, Dihydrochloride]      melting point    227 °C (dec.)
2  CCN1CCN(c2nc(-c3ccc(OC)cc3)cc3ccc(F)cc23)CC1 (as salt: hydrochloride) [Example 229, dihydrochloride]      melting point    220 to 225 °C

---

- Measured On: serotonin 1A receptor (Rattus norvegicus, UniProt P19327)
- Construct: To the receptor fraction of the hippocampus were added a test compound and 0.5 nM of [^3H]; 8-hydroxy-dipropylaminotetralin; from tissue; host or cells: rat hippocampus membrane fraction
- Sequence (P19327 whole entry): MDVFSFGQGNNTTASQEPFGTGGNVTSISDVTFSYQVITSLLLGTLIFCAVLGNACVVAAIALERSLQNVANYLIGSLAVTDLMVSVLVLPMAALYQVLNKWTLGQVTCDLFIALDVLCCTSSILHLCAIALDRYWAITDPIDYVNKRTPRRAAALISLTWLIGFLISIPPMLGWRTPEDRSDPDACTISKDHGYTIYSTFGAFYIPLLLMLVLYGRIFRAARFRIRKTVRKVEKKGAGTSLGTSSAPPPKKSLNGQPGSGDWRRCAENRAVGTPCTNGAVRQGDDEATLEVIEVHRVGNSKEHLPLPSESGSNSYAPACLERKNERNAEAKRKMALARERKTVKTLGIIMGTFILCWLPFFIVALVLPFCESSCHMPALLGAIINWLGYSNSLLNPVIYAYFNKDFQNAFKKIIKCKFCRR
- Test Name: Binding test on [3H] 8-hydroxy-dipropylaminotetralin, hippocampus receptor fraction
- Design: species or system SD rats
- Protocol Conditions: rat hippocampus receptor fraction, 0.5 nM [3H] 8-OH-DPAT, room temperature 30 min; read-out: 5HT1
Where a name gives a salt, the structure may show the parent alone.
Item-by-item account of Ki
Reported Property: Ki (nM)

                                   compound  reported_property  unit_text  endpoint_result
0  CCN1CCN(c2nc(-c3ccc(CC(C)O)cc3)cc3ccccc23)CC1 (centres unmarked) [Example 376, oxalate]                 Ki         nM             19.5
1  CCN1CCN(c2nc(-c3ccc(OCCO)cc3)cc3cccc(F)c23)CC1 [Example 234, dihydrochloride]                 Ki         nM              129
2  CCN1CCN(c2nc(-c3ccc(CN4CCOCC4)cc3)cc3ccccc23)CC1 [Example 93, Hydrochloride]                 Ki         nM             10.8
3  CCN1CCN(c2nc(-c3ccc(CCC(C)(C)O)cc3)cc3ccsc23)CC1 [Example 439, dihydrochloride]                 Ki         nM             44.2
4  CCN1CCN(c2nc(/C=C(\C)c3ccccc3)cc3ccccc23)CC1 [Example 196]                 Ki         nM             66.7
5  CCN1CCN(c2nc(/C=C/c3ccc(OCCO)cc3)cc3ccccc23)CC1 [Example 198, Oxalate]                 Ki         nM             45.5
6  CCN1CCN(c2nc(NC(=O)c3ccccc3)cc3ccccc23)CC1 [Example 421]                 Ki         nM             9.47
7  CCN1CCN(c2nc(-c3ccc(N4CCC5(CC4)OCCO5)cc3)cc3ccccc23)CC1 [Example 96]                 Ki         nM              138

---

- Measured On: serotonin 1A receptor (Rattus norvegicus, UniProt P19327)
- Construct: To the receptor fraction of the hippocampus were added a test compound and 0.5 nM of [^3H]; 8-hydroxy-dipropylaminotetralin; from tissue; host or cells: rat hippocampus membrane fraction
- Test Name: Binding test on [3H] 8-hydroxy-dipropylaminotetralin, hippocampus receptor fraction
- Parameters: species or system SD rats
- Protocol Conditions: rat hippocampus receptor fraction, 0.5 nM [3H] 8-OH-DPAT, room temperature 30 min; read-out: 5HT1
pKi: −log10 of the molar value. Counter-ions that a name gives are not always drawn.
Output Y for pKi not less than 8; output N otherwise.

                                   molecule                               measured_on  assigned_category
0  CCN1CCN(c2nc(-c3ccc(OC)c(OC)c3)cc3ccccc23)CC1 [Example 14, Dihydrochloride]  serotonin 1A receptor (Rattus norvegicus, UniProt P19327)                  N
1  CCCNC(=O)c1ccc(-c2cc3ccccc3c(N3CCN(CC)CC3)n2)cc1 [Example 63, Hydrochloride]  serotonin 1A receptor (Rattus norvegicus, UniProt P19327)                  N
2  CCN1CCN(c2nc(-c3ccc(OCCO)cc3)cc3cccnc23)CC1 [Example 245, Dihydrochloride]  serotonin 1A receptor (Rattus norvegicus, UniProt P19327)                  N
3  CCN1CCN(c2nc(-c3ccc(C(F)CCO)cc3)cc3ccccc23)CC1 (centres unmarked) [Example 27]  serotonin 1A receptor (Rattus norvegicus, UniProt P19327)                  N
4  CCN1CCN(c2nc(-c3ccc(CS(C)(=O)=O)cc3)cc3ccccc23)CC1 [Example 90, Hydrochloride]  serotonin 1A receptor (Rattus norvegicus, UniProt P19327)                  Y
5  CCN1CCN(c2nc(-c3ccc(OCC4OCCO4)cc3)cc3sccc23)CC1 [Example 460, oxalate]  serotonin 1A receptor (Rattus norvegicus, UniProt P19327)                  Y
6  CCN1CCN(c2nc(-c3ccc(S(=O)(=O)CCCF)cc3)cc3ccccc23)CC1 [Example 355, dihydrochloride]  serotonin 1A receptor (Rattus norvegicus, UniProt P19327)                  Y

Reference for the values: patent US6875761B2
